assay: Times to onset, minimal and maximal, observed in the indexed observations. [column 'DELAI' in source]
condition-set: human
measure: Hepatotoxicity (time to onset) (weeks)
Answers are plain numbers, in weeks.

Please state Hepatotoxicity (time to onset) for every compound in the list that follows.
1. Cc1cc(CC(=O)O)n(C)c1C(=O)c1ccc(Cl)cc1 [ZOMEPIRAC]
2. CC(=O)Nc1ccc(OC(=O)c2ccccc2OC(C)=O)cc1 [BENORILATE]

[2, 3]

---

Assignment: determine reported Hepatotoxicity (acute) for the given compounds.
condition-set: human, serum
One number for each entry.

N=C(N)c1ccc(/C=C/c2ccc(C(=N)N)cc2O)cc1 [HYDROXYSTILBAMIDINE]: 1

Please state Hepatotoxicity (acute) for every compound in the list that follows.
1. NNc1nnc(NN)c2ccccc12 [DIHYDRALAZINE]
2. CCN1CCN(C(=O)N[C@@H](C(=O)N[C@@H]2C(=O)N3[C@@H]2SC(C)(C)[C@@H]3C(=O)O)c2ccccc2)C(=O)C1=O [PIPERACILLIN]
3. Nc1nc(O)c2ncn(COC(CO)CO)c2n1 [GANCICLOVIR]
4. CCC1NC(=O)c2cc(S(N)(=O)=O)c(Cl)cc2N1 (configuration not stated) [QUINETHAZONE]
5. FC(F)OC(F)C(F)(F)F (configuration not stated)
6. Cn1c(=O)c2[nH]cnc2n(C)c1=O.O [THEOPHYLLINE]
7. CN1CCN(C(c2ccccc2)c2ccccc2)CC1 [CYCLIZINE]

[21, 4, 1, 1, 4, 1, 1]

Please state Hepatotoxicity (acute) for every compound in the list that follows.
1. CCC1(c2ccccc2)C(=O)NC(=O)N(C)C1=O (configuration not stated) [MEPHOBARBITAL]
2. CC(=O)Nc1ccc(OCC(O)CNC(C)C)cc1 (configuration not stated) [PRACTOLOL]
3. COc1cccc2c1C(=O)c1c(O)c3c(c(O)c1C2=O)C[C@@](O)(C(=O)CO)C[C@@H]3O[C@H]1C[C@H](N)[C@H](O)[C@H](C)O1 [DOXORUBICIN]
4. CN[C@@H]1[C@@H](O)[C@@H](O[C@@H]2[C@@H](O)[C@H](O[C@H]3OC(CN)=CC[C@H]3N)[C@@H](N)C[C@H]2N)OC[C@]1(C)O [SISOMICIN]

1: 1; 2: 0; 3: 7; 4: 0

---

assay: Highest frequency of moderate liver toxicity observed during clinical trials, expressed as a percentage. [column '% BIOL' in source]
condition-set: human
# if measured Hepatotoxicity (moderate) < 10%: Yes  # else: No

CCN(CC)CCOC(=O)[C@@H](Cc1cccc2ccccc12)C[C@@H]1CCCO1 [NAFTIDROFURYL]: Yes
[H]/N=C(/N)N/C(=N/[H])NCCc1ccccc1 [PHENFORMIN]: Yes
Cc1ccccc1N1C(=O)c2cc(S(N)(=O)=O)c(Cl)cc2NC1C (stereo not given) [METOLAZONE]: Yes

Threshold test, Hepatotoxicity (moderate) < 10%: O=[N+]([O-])c1ccc(O)c([N+](=O)[O-])c1 [2,4-DINITROPHENOL]
Yes

Cool, now FC(F)OC(Cl)C(F)(F)F (stereo not given) [ISOFLURANE]
No

Cool, now Cc1cc(C)cc(OCC2CNC(=O)O2)c1 (stereo not given) [METAXALONE]
Yes

Cool, now Cc1ncc(CNC(=O)N(CCCl)N=O)c(N)n1 [NIMUSTINE]
Yes

Cool, now CCCCc1nc(Cl)c(CO)n1Cc1ccc(-c2ccccc2-c2nn[nH]n2)cc1 [LOSARTAN]
No

Cool, now CCN1C(=O)NC(c2ccccc2)C1=O (stereo not given) [ETHOTOIN]
Yes

---

condition-set: human
Assignment: determine reported Hepatotoxicity (severe hepatitis) for the given molecules.
Give bare numbers.

Please state Hepatotoxicity (severe hepatitis) for every molecule in the list that follows.
1. CCN(CC)CC(=O)Oc1ccc(NC(C)=O)cc1
2. CCCCC(=O)N(Cc1ccc(-c2ccccc2-c2nnn[nH]2)cc1)[C@H](C(=O)O)C(C)C
3. NCCCC[C@H](N[C@@H](CCc1ccccc1)C(=O)O)C(=O)N1CCC[C@H]1C(=O)O [LISINOPRIL ANHYDROUS]
4. C[C@H](O)C(=O)Nc1c(I)c(C(=O)NC(CO)CO)c(I)c(C(=O)NC(CO)CO)c1I
5. CN1CCN(C(=S)Nc2ccc(Nc3ccc([N+](=O)[O-])cc3)cc2)CC1
6. O=C1c2ccccc2C(=O)C1c1ccc(F)cc1
7. COC(=O)c1nc2cc(Cl)c3cccnc3c2o1
8. CC(=O)OCC(CCn1cnc2cnc(N)nc21)COC(C)=O

0
1
1
1
0
0
0
1

---

assay: Highest frequency of acute liver toxicity observed during clinical trials, expressed as a percentage. [column '% AIGUE' in source]
condition-set: human, Liver
measure: Hepatotoxicity (acute) (%)
Answers are plain numbers, in %.

Example entries begin here.
CCn1cc(C(=O)O)c(=O)c2cc(F)c(N3CCNCC3)cc21: 0
Cc1nnc(SCC2=C(C(=O)O)N3C(=O)[C@@H](NC(=O)Cn4cnnn4)[C@H]3SC2)s1: 0
CCCC(=O)Nc1ccc(OCC(O)CNC(C)C)c(C(C)=O)c1 (stereo unspecified): 0

Please state Hepatotoxicity (acute) for every compound in the list that follows.
1. c1ccc([C@H]2CN3CCSC3=N2)cc1
2. Cc1c(C)c2c(c(C)c1O)CC[C@@](C)(CCC[C@H](C)CCC[C@H](C)CCCC(C)C)O2
3. Nc1ccn([C@@H]2O[C@H](CO)[C@@H](O)[C@@H]2O)c(=O)n1
4. COc1ccc2c3c1O[C@H]1[C@@H](O)C=C[C@H]4[C@@H](C2)N(C)CC[C@@]341

[0, 0, 28.6, 0]

---

condition-set: human
Assignment: determine reported Hepatotoxicity (association with vascular disease) for the given molecules.
Numbers only.

Example entries begin here.
CC(=O)c1ccc(S(=O)(=O)NC(=O)NC2CCCCC2)cc1 [ACETOHEXAMIDE]: 0
O=P(O)(O)C(Sc1ccc(Cl)cc1)P(=O)(O)O [TILUDRONIC ACID]: 0

GET /values?readout=Hepatotoxicity (association with vascular disease)&item= Cc1cccc(Nc2ccncc2S(=O)(=O)NC(=O)NC(C)C)c1 [TORSEMIDE]
0

---

Assignment: determine reported Hepatotoxicity (cytolytic) for the given compounds.
condition-set: human

CC(=O)N(O)CCCCCNC(=O)CCC(=O)N(O)CCCCCNC(=O)CCC(=O)N(O)CCCCCN: 1
CN(C)CCC(c1ccc(Cl)cc1)c1ccccn1.O=C(O)/C=C\C(=O)O (stereo not drawn) [CHLORPHENIRAMINE MALEATE]: 1

Please state Hepatotoxicity (cytolytic) for every compound in the list that follows.
1. CO/N=C(\C(=O)N[C@@H]1C(=O)N2C(C(=O)O)=C(COC(N)=O)CS[C@H]12)c1ccco1
2. CC(C)(C)C(=O)OCOC(=O)[C@@H]1N2C(=O)[C@@H](NC(=O)[C@H](N)c3ccccc3)[C@H]2SC1(C)C
3. C=CCC1(CC(C)C)C(=O)NC(=O)NC1=O
4. Oc1ncnc2[nH]ncc12
5. CO/N=C(\C(=O)N[C@@H]1C(=O)N2C(C(=O)[O-])=C(C[n+]3ccn4ncccc43)CS[C@H]12)c1nsc(N)n1
6. CC(=O)N1CCN(c2ccc(OCC3COC(Cn4ccnc4)(c4ccc(Cl)cc4Cl)O3)cc2)CC1 (stereo not drawn)

[1, 1, 1, 26, 0, 37]

---

assay: Times to onset, minimal and maximal, observed in the indexed observations. [column 'DELAI' in source]
condition-set: human
Assignment: determine reported Hepatotoxicity (time to onset) for the given compounds.

CN(CCCN1c2ccccc2CCc2ccccc21)CC(=O)c1ccc(Cl)cc1 [LOFEPRAMINE]: 1 week - 12 weeks

Please state Hepatotoxicity (time to onset) for every compound in the list that follows.
1. CCc1cc2c(s1)N(C)C(=O)CN=C2c1ccccc1Cl [CLOTIAZEPAM]
2. Cc1nnc(NS(=O)(=O)c2ccc(N)cc2)s1 [SULFAMETHIZOLE]

1. 7 months
2. 1 month - 2 months

GET /values?readout=Hepatotoxicity (time to onset)&item= C[C@](N)(Cc1ccc(O)c(O)c1)C(=O)O [METHYLDOPA]
3 days - 12 years

---

Assignment: determine reported Hepatotoxicity (acute) for the given compounds.
condition-set: human, serum

Example entries begin here.
CC[C@H]1OC(=O)[C@H](C)[C@@H](O[C@H]2C[C@@](C)(OC)[C@@H](O)[C@H](C)O2)[C@H](C)[C@@H](O[C@@H]2O[C@H](C)C[C@H](N(C)C)[C@H]2O)[C@](C)(O)C[C@@H](C)CN(C)[C@H](C)[C@@H](O)[C@]1(C)O: 5
O=C(O)c1cc(-c2ccc(F)cc2F)ccc1O: 5

Turning now to a further compound:
GET /values?readout=Hepatotoxicity (acute)&item= CC/C(=C(/CC)c1ccc(O)cc1)c1ccc(O)cc1
5

---

Assignment: determine reported Hepatotoxicity (cytolytic) for the given molecules.
condition-set: human

Example entries begin here.
CC(O)(CS(=O)(=O)c1ccc(F)cc1)C(=O)Nc1ccc(C#N)c(C(F)(F)F)c1 (stereo not given) [BICALUTAMIDE]: 1
C[C@H]1O[C@@H](O[C@H]2[C@@H](O)C[C@H](O[C@H]3[C@@H](O)C[C@H](O[C@H]4CC[C@@]5(C)[C@H](CC[C@@H]6[C@@H]5C[C@@H](O)[C@]5(C)[C@@H](C7=CC(=O)OC7)CC[C@]65O)C4)O[C@@H]3C)O[C@@H]2C)C[C@H](O)[C@@H]1O: 0

Please state Hepatotoxicity (cytolytic) for every molecule in the list that follows.
1. CC(N)C(=O)OC(C)(C)Cc1ccc(Cl)cc1 (stereo not given) [ALAPROCLATE]
2. CC(C)(C)C(=O)OCOC(=O)[C@@H]1N2C(=O)[C@@H](/N=C/N3CCCCCC3)[C@H]2SC1(C)C
3. CC(C)NCC(O)COc1ccc(CC(N)=O)cc1 (stereo not given)
4. O=C(COc1ccc(Cl)cc1)N1CCN(Cc2ccc3c(c2)OCO3)CC1 [FIPEXIDE]
5. CC[C@@H](CO)NC(=O)[C@@H]1C=C2c3cccc4c3c(cn4C)C[C@H]2N(C)C1 [METHYSERGIDE]
6. Cc1[nH]cnc1CSCCNc1ncc(Cc2ccc3c(c2)OCO3)c(=O)[nH]1
7. CC(C)(C)c1ccc(C(O)CCCN2CCC(C(O)(c3ccccc3)c3ccccc3)CC2)cc1 (stereo not given)
8. O=c1cc(Cc2ccccc2)[nH]c(=S)[nH]1

0
0
1
3
0
0
2
0

Please state Hepatotoxicity (cytolytic) for every molecule in the list that follows.
1. Cc1nc2n(c(=O)c1CCN1CCC(c3noc4cc(F)ccc34)CC1)CCCC2
2. CC(OC(=O)OC1CCCCC1)OC(=O)C1=C(CSc2nnnn2CCN(C)C)CS[C@@H]2[C@H](NC(=O)Cc3csc(N)n3)C(=O)N12 (stereo not given in full)
3. CCN(CC)CCOC(=O)[C@@H](Cc1cccc2ccccc12)C[C@@H]1CCCO1
4. CN(C)CCn1nnnc1SCC1=C(C(=O)O)N2C(=O)[C@@H](NC(=O)Cc3csc(N)n3)[C@H]2SC1
5. Clc1ccc(COC(Cn2ccnc2)c2ccc(Cl)cc2Cl)c(Cl)c1 (stereo not given)

1. 5
2. 0
3. 2
4. 0
5. 0

Please state Hepatotoxicity (cytolytic) for every molecule in the list that follows.
1. CC12CCC(CC1=O)C2(C)C (stereo not given)
2. CCN1CCC[C@H]1CNC(=O)c1c(O)c(Cl)cc(Cl)c1OC [RACLOPRIDE]
3. CC(S)C(=O)NCC(=O)O (stereo not given)
4. CC(C)C(=O)Nc1ccc([N+](=O)[O-])c(C(F)(F)F)c1 [FLUTAMIDE]
5. CO/N=C(\C(=O)N[C@@H]1C(=O)N2C(C(=O)[O-])=C(C[N+]34CCC(C(N)=O)(CC3)CC4)CS[C@H]12)c1nsc(N)n1

[1, 0, 1, 21, 0]
